target: UniProt P35400; assay: calcium mobilization assay with rat mGlu7/Gα15/HEK cells; format: cell-based
Parameter fold loss of mGlu7 NAM potency relative to 8: see the listing below.

1. CCOC(=O)c1cnc2c(OC)cccc2c1N1CCN(c2ccccc2OC)CC1C (stereo not drawn) [14b] :: ~ 2 fold
2. CCOC(=O)c1cnc2sccc2c1N1CCN(c2ccccc2OC)CC1 [13c] :: ~ 6.5 fold
3. CCOC(=O)c1cnc2c(OC)cccc2c1N(C)CCN(C)c1ccccc1OC [14c] :: ~ 6 fold
4. CCOC(=O)c1cnc2c(OC)cccc2c1N1CCN(c2ccccc2OC)C(C)C1 (stereo not drawn) [14a] :: ~ 2 fold
5. CCOC(=O)c1cnc2ccsc2c1N1CCN(c2ccccc2OC)CC1 [13b] :: ~ 6.5 fold

Okay, next one:
Query: Fill in fold loss of mGlu7 NAM potency relative to 8 for record CCOC(=O)c1cnccc1N1CCN(c2ccccc2OC)CC1 [13a]
Response: ~ 6.5 fold

====

molecular target: rat mGlu7 (Rattus norvegicus, UniProt P35400); test: calcium mobilization assay with rat mGlu7/Gα15/HEK cells; type: cell-based
Sequence (P35400 35-915): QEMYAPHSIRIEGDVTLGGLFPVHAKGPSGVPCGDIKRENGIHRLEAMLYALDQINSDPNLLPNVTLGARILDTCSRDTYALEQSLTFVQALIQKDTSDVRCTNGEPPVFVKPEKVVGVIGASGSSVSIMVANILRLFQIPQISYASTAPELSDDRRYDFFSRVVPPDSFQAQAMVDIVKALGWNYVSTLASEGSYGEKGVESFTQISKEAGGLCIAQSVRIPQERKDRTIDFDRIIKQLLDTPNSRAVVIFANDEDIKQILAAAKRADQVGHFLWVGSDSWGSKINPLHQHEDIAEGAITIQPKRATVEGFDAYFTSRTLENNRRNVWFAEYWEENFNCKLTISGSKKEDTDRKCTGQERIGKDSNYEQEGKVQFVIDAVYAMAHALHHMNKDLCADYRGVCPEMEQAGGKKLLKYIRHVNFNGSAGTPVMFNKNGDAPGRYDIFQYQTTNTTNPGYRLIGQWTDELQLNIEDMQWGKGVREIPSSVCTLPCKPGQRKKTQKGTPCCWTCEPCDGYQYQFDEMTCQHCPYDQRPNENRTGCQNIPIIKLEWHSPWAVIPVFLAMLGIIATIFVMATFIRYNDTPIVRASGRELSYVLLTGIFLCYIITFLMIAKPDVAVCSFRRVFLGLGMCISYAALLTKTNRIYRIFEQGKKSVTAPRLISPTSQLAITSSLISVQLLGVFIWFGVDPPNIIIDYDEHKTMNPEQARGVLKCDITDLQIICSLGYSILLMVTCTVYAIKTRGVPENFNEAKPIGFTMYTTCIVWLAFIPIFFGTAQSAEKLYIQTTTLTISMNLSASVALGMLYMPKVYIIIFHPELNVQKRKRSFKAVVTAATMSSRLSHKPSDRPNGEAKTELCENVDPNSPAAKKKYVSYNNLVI
METRIC: mGlu7 NAM activity in words

Previously resolved entries follow.
1) CCOC(=O)c1cnc2c(OC)cccc2c1C1C2CC1CN(c1ccccc1OC)C2 (stereo not shown) [14f] :: inactive
2) CCOC(=O)c1cnc2c(OC)cccc2c1N1CCN(c2ccccc2Cl)CC1 [11d] :: lost activity
3) CCOC(=O)c1cnc2c(OC)cccc2c1C1CC2CC(C1)N2c1ccccc1OC (stereo not shown) [14g] :: inactive
4) CCOC(=O)c1cnc2c(OC)cccc2c1N1CCN(c2ccccc2C#N)CC1 [11f] :: lost activity
5) CCOC(=O)c1cnc2c(OC)cccc2c1N1CCN(c2ccccc2F)CC1 [11h] :: lost activity
6) CCOC(=O)c1cnc2c(OC)cccc2c1N1CCN(c2nccnc2OC)CC1 [11m] :: modest potency

Query: Identify measured mGlu7 NAM activity in words corresponding to "CCOC(=O)c1cnc2c(OC)cc(OC)cc2c1-c1ccc(-c2ccccc2OCC)nc1"
Response: sub-micromolar

Query: Supply measured mGlu7 NAM activity in words of CCOC(=O)c1cnc2c(OC)cccc2c1N1CCN(c2ccccc2C)CC1 [11e] in your reply.
Response: lost activity

Query: Identify measured mGlu7 NAM activity in words associated with "CCOC(=O)c1cnc2c(OC)cc(OC)cc2c1-c1ccc(-c2ccccc2OC)nc1"
Response: sub-micromolar

Query: Provide one value: measured mGlu7 NAM activity in words of CCOC(=O)c1cnc2c(OC)cccc2c1N1CCN(c2cccnc2OC)CC1 [11l]
Response: modest potency

Query: Let me know recorded mGlu7 NAM activity in words for CCOC(=O)c1ccc2c(OC)cccc2c1N1CCN(c2ccccc2OC)CC1 [13d] , thanks.
Response: inactive

====

experiment: clearance in vivo; conditions: plasma
METRIC: clearance (mL/min/kg)
Just the number in mL/min/kg, nothing appended.

Query: Indicate the recorded clearance value for this molecule: CCOC(=O)c1cnc2c(OC)cccc2c1-c1cnc(-c2ccccc2OC)c(OC)c1 [15h]
Response: 70

Each recorded value in this set is attributed to paper PMC7686273.
